Data provenance is paper PMC8414367.

Assayed target: GPBAR1 (Homo sapiens, UniProt Q8TDU6)
Sequence (Q8TDU6 1-330): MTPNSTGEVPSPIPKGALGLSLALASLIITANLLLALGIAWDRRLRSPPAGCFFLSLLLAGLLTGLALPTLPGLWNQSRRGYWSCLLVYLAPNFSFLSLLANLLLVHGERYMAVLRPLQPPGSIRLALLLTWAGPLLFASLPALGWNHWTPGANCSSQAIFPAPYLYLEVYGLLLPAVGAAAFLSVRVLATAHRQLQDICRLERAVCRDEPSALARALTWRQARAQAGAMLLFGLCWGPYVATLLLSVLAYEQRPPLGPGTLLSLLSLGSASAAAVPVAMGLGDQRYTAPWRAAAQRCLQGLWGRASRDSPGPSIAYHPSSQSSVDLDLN
Protocol: GPBAR1 CRE-luc luciferase reporter assay in HepG2 cells
Condition label: abstract; read-out: EC50, GPBAR1 agonist
Result type: EC50 (nM)
Report the value in nM with no unit label.

stdin: Give EC50 for the following compound: C/C=C1\C[C@@H]2C[C@H](O)CC[C@]2(C)[C@H]2CC[C@]3(C)[C@@H]([C@H](C)CCC(=O)O)CC[C@H]3[C@H]12
stdout: 26

* * *

This section presents compounds with their documented viability at 24 h, 10 µM values.
Protocol: MTS viability assay
Type: cell-based, human
Condition label: human, Huh7 cells; Huh7, 24 h, vehicle = 100%
# value in %; strip the unit string

Known results for compounds:
Compound: CC(CCC(=O)O)C1CCC2C3C(CCC12C)C1(C)CCC(O)CC1CC3(O)C(C)C (stereo not shown)
Result type: viability at 24 h, 10 µM
Value measured: 97.6

Compound: CCC[C@@]1(O)C[C@@H]2C[C@H](O)CC[C@]2(C)C2CC[C@@]3(C)C(CC[C@@H]3[C@H](C)CCC(=O)O)C21 (stereo partly shown)
Result type: viability at 24 h, 10 µM
Value measured: 117

Compound: CC[C@@]1(O)C[C@@H]2C[C@H](O)CC[C@]2(C)C2CC[C@@]3(C)C(CC[C@@H]3[C@H](C)CCC(=O)O)C21 (stereo partly shown)
Result type: viability at 24 h, 10 µM
Value measured: 113

Shift focus to the following entry.
stdin: Specify measured viability at 24 h, 10 µM for C=CCCC[C@@]1(O)C[C@@H]2C[C@H](O)CC[C@]2(C)C2CC[C@@]3(C)C(CC[C@@H]3[C@H](C)CCC(=O)O)C21 (stereo partly shown) .
stdout: 114

* * *

Assayed target: UniProt:Q96RI1
Sequence (Q96RI1 1-486): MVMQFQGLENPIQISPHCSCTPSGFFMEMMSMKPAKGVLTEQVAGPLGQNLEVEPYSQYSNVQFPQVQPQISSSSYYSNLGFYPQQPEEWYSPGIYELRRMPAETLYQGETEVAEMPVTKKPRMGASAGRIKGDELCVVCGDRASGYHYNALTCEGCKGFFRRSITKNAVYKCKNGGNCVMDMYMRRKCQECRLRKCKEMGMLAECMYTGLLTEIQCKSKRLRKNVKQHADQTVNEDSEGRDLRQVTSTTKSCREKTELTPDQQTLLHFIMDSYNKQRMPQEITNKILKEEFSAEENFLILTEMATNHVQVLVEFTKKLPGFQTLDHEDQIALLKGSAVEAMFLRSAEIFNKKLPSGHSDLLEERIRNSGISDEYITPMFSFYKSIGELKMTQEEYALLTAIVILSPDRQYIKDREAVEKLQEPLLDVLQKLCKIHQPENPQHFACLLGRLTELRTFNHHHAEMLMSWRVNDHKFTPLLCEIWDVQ
Sequence (P19793 1-462 partner): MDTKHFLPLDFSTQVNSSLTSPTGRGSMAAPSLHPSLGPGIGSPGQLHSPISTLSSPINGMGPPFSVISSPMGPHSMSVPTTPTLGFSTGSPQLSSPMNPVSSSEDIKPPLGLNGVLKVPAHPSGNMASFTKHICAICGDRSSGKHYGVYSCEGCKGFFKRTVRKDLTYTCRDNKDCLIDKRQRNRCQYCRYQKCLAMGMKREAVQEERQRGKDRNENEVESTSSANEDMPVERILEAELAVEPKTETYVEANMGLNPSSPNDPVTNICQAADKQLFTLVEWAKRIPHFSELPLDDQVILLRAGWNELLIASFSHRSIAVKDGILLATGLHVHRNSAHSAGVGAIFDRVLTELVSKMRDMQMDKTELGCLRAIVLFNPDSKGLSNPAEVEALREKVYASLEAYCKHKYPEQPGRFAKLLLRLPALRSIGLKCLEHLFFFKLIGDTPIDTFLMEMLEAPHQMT
Protocol: FXR luciferase reporter gene assay (FXRE-luc) in HepG2 cells, antagonistic mode
Condition label: HepG2, co-treatment with 1 µM OCA, 24 h; read-out: IC50, inhibition of OCA-induced FXR activation
Result type: IC50 (µM)
Numbers only; they are read as µM.

Molecule: CC(CCC(=O)O)C1CCC2C3C(CCC12C)C1(C)CCC(O)CC1CC3(O)C(C)C (centres unmarked)
Value measured: 17.5

Alright, here's another molecule for you.
stdin: Note IC50 for the molecule shown: CCC[C@@]1(O)C[C@@H]2C[C@H](O)CC[C@]2(C)C2CC[C@@]3(C)C(CC[C@@H]3[C@H](C)CCC(=O)O)C21 (some centres unmarked)
stdout: 20.5
